Provenance of the data: ChEMBL document CHEMBL2177045

experimentalTarget: UniProt P49682
Sequence (P49682 whole entry): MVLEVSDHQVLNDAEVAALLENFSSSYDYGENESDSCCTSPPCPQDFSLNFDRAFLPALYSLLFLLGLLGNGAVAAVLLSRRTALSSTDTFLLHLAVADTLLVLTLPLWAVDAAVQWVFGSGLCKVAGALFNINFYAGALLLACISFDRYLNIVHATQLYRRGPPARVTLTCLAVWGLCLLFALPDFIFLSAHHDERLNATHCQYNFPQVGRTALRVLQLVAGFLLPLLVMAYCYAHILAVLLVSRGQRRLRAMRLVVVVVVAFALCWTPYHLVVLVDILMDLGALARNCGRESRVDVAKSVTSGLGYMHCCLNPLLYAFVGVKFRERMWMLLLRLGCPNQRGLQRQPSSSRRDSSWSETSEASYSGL
protocolText: Agonist activity at CXCR3 expressed in HEK293 cells by [35S]GTPgamma binding assay
This listing pairs molecules with measured pEC50.
# pEC50 is unitless: minus log10 of the molar concentration; print number only

Here's what some known entries look like.
smilesrecord=CC1(C)[C@H]2CC=C(C[N+](C)(C)Cc3ccc(-c4c(Cl)cccc4Cl)cc3)[C@@H]1C2 metric=pEC50 result=5.70
smilesrecord=CC1(C)[C@H]2CC=C(C[N+](C)(C)Cc3ccc(-c4ccccc4Cl)c(Cl)c3)[C@@H]1C2 metric=pEC50 result=6.10
smilesrecord=COc1ccccc1-c1ccc(C[N+](C)(C)CC2=CC[C@H]3C[C@@H]2C3(C)C)cc1 metric=pEC50 result=4.90
smilesrecord=CC1(C)[C@H]2CC=C(C[N+](C)(C)Cc3ccc(-c4ccccc4Br)cc3)[C@@H]1C2 metric=pEC50 result=6.10
smilesrecord=CC1(C)[C@H]2CC=C(C[N+](C)(C)Cc3ccc(-c4cccc(Cl)c4Cl)cc3)[C@@H]1C2 metric=pEC50 result=6.20
smilesrecord=Cc1cccc(C)c1-c1ccc(C[N+](C)(C)CC2=CC[C@H]3C[C@@H]2C3(C)C)cc1 metric=pEC50 result=5.10

In: Give measured pEC50 for `CC1(C)[C@H]2CC=C(C[N+](C)(C)Cc3ccc(-c4ccccc4I)cc3)[C@@H]1C2` (UniProt P49682).
Out: 6.00

In: Answer with pEC50 of `CC1(C)[C@H]2CC[C@@H](C[N+](C)(C)Cc3ccc(-c4ccccc4I)cc3)[C@@H]1C2` measured for UniProt P49682.
Out: 5.90

In: Provide pEC50, system UniProt P49682, entry `Cc1ccccc1-c1ccc(C[N+](C)(C)CC2=CC[C@H]3C[C@@H]2C3(C)C)cc1`
Out: 5.90

In: Give pEC50 for this entry on UniProt P49682: `CC1(C)[C@H]2CC=C(C[N+](C)(C)Cc3ccc(-c4cc(Cl)ccc4Cl)cc3)[C@@H]1C2`
Out: 5.30

In: Provide pEC50, tested on UniProt P49682, for `CC1(C)[C@H]2CC=C(C[N+](C)(C)Cc3ccc(-c4ccccc4F)cc3)[C@@H]1C2` .
Out: 5.90

In: // fetch pEC50; item: `CC1(C)[C@@H]2CC=C(C[N+](C)(C)Cc3ccc(-c4ccccc4I)cc3)[C@H]1C2` ; system: UniProt P49682
Out: 6.20

In: Please report the measured pEC50 for `CC1(C)[C@H]2CC(C[N+](C)(C)Cc3ccc(-c4ccccc4I)cc3)=C[C@@H]1C2` tested on UniProt P49682.
Out: 5.80

In: Please look at `CC1(C)[C@H]2CC=C(C[N+](C)(C)Cc3ccc(-c4ccccc4Cl)cc3)[C@@H]1C2` and tell me its recorded pEC50 on UniProt P49682.
Out: 5.80
